- Test system: KM12 colon
- Experiment: NCI-60 one-dose screen, 48 h (100 = growth as untreated, 0 = no growth, -100 = all killed)
- Condition set: 10 µM unless noted
About 83,000 compounds went through this panel and 20% of them were active in at least one assay; those are over-represented in the sample as a whole.
Readout name: growth (%)
Output spec: scalar in %, unitless text.

Name the reported growth value associated with the molecule Cc1ccc(-c2nnc3sc(C4=Cc5ccccc5OC=C4)nn23)cc1
106

Field request: growth | item: CCN(CC)c1ccc2cc(C(=O)NCCOCCOCCOCCn3cc(CCC(=O)Nc4ccc(C(=O)c5ccc(NC(=O)OC(C)(C)C)cc5)cc4)nn3)c(=O)oc2c1
36.6

Need growth, item C#C[C@]1(O)CC[C@H]2[C@@H]3CC=C4c5sc(-c6cccc(F)c6)nc5CC[C@]4(C)[C@H]3CC[C@@]21C
75.6

Returns the measured growth for the input molecule. Input: CN(C)c1ccc(/C=N/Nc2nc(N/N=C/c3ccc(N(C)C)cc3)nc(N3CCOCC3)n2)cc1
104

These data points were gathered from PubChem BioAssay (NCI).
